target: Cyclooxygenase (Rattus norvegicus, UniProt P35355+Q63921); assay: In vitro inhibition of PGE-2 production was measured in rat blood; type: functional
Please map values of IC50 to classes as shown: A (below 20 µM), B (20 µM to below 60 µM), C (60 µM or more)

In [3]: df
Out[3]:
                                    compound  label_class
 0       O=c1c2ccccc2[nH]n1Cc1c[nH]c2ccccc12            C
 1               O=c1c2ccccc2[nH]n1Cc1ccccn1            C
 2            O=c1c2ccccc2[nH]n1CCCCc1ccccc1            B
 3              Cc1ncccc1Cn1[nH]c2ccccc2c1=O            B
 4  O=c1c(O)c(-c2ccc(O)c(O)c2)oc2cc(O)cc(O)c12 [QUERCETIN]            B
 5           O=C1CCN(c2ccccc2)N1 [PHENIDONE]            A
 6            Cc1ccc(Cn2[nH]c3ccccc3c2=O)cn1            B
 7                         Oc1n[nH]c2ccccc12            B
 8               O=c1c2ccccc2[nH]n1Cc1ccccc1            A
 9           O=c1c2ccccc2[nH]n1Cc1cncc(Br)c1            B
10                       Cn1[nH]c2ccccc2c1=O            A
11  C[C@H](c1cccc2ccccc12)n1[nH]c2ccccc2c1=O            C

----------
target: Polyunsaturated fatty acid 5-lipoxygenase (Rattus norvegicus, UniProt P12527); assay: In vitro inhibition of LTB4 production was measured in rat blood
Sequence (P12527 whole entry): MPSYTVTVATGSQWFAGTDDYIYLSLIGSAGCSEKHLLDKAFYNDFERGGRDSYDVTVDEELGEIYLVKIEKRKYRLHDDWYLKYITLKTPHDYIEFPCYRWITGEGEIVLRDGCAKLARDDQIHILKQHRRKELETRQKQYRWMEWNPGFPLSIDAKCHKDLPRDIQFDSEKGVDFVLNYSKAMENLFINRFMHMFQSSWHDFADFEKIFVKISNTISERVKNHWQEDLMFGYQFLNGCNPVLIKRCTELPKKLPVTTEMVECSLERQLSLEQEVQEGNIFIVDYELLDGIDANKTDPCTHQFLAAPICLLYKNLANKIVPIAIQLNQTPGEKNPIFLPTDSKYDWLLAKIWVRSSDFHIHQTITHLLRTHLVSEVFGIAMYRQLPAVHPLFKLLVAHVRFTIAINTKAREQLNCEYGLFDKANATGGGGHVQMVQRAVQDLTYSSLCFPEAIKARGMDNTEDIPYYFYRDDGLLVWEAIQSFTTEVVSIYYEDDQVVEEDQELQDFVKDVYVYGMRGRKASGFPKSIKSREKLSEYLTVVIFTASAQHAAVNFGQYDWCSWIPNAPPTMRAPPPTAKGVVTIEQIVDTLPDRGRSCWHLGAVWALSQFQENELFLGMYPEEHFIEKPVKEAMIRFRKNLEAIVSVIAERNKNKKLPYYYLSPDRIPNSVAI
Define the label as YES when IC50 is strictly less than 2 µM and as NO in all remaining cases.

>>> df
                          compound_structure                             tested_system  label_class
 0                COc1nn(Cc2ccccc2)c2ccccc12  Polyunsaturated fatty acid 5-lipoxygenase (Rattus norvegicus, UniProt P12527)           NO
 1            Cc1ccc(Cn2[nH]c3ccccc3c2=O)cn1  Polyunsaturated fatty acid 5-lipoxygenase (Rattus norvegicus, UniProt P12527)           NO
 2               Cn1c2ccccc2c(=O)n1Cc1ccccc1  Polyunsaturated fatty acid 5-lipoxygenase (Rattus norvegicus, UniProt P12527)           NO
 3              Cc1ccncc1Cn1[nH]c2ccccc2c1=O  Polyunsaturated fatty acid 5-lipoxygenase (Rattus norvegicus, UniProt P12527)           NO
 4  C[C@@H](c1cccc2ccccc12)n1[nH]c2ccccc2c1=O  Polyunsaturated fatty acid 5-lipoxygenase (Rattus norvegicus, UniProt P12527)           NO
 5         O=c1c2ccccc2[nH]n1Cc1cccc2ccccc12  Polyunsaturated fatty acid 5-lipoxygenase (Rattus norvegicus, UniProt P12527)          YES
 6             O=c1c2ccccc2[nH]n1Cc1cccnc1Cl  Polyunsaturated fatty acid 5-lipoxygenase (Rattus norvegicus, UniProt P12527)          YES
 7              Cc1ncccc1Cn1[nH]c2ccccc2c1=O  Polyunsaturated fatty acid 5-lipoxygenase (Rattus norvegicus, UniProt P12527)           NO
 8           O=c1c2ccccc2[nH]n1Cc1cncc(Br)c1  Polyunsaturated fatty acid 5-lipoxygenase (Rattus norvegicus, UniProt P12527)          YES
 9            Cc1cncc(Cn2[nH]c3ccccc3c2=O)c1  Polyunsaturated fatty acid 5-lipoxygenase (Rattus norvegicus, UniProt P12527)          YES
10                     Cn1[nH]c(=O)c2ccccc21  Polyunsaturated fatty acid 5-lipoxygenase (Rattus norvegicus, UniProt P12527)           NO
11              c1ccc(COc2[nH]nc3ccccc23)cc1  Polyunsaturated fatty acid 5-lipoxygenase (Rattus norvegicus, UniProt P12527)           NO
